# pEC50 listing for each entry below
# target-of-assay: T1, recombinant human TfR1 (transferrin receptor protein 1) (human, UniProt P02786 89-760)
# T1 construct: Recombinant protein in SPR and ELISA; they were assigned to this molecule; also called hTfR1; huTfR1
# T1 sequence (P02786 89-760 limits assumed): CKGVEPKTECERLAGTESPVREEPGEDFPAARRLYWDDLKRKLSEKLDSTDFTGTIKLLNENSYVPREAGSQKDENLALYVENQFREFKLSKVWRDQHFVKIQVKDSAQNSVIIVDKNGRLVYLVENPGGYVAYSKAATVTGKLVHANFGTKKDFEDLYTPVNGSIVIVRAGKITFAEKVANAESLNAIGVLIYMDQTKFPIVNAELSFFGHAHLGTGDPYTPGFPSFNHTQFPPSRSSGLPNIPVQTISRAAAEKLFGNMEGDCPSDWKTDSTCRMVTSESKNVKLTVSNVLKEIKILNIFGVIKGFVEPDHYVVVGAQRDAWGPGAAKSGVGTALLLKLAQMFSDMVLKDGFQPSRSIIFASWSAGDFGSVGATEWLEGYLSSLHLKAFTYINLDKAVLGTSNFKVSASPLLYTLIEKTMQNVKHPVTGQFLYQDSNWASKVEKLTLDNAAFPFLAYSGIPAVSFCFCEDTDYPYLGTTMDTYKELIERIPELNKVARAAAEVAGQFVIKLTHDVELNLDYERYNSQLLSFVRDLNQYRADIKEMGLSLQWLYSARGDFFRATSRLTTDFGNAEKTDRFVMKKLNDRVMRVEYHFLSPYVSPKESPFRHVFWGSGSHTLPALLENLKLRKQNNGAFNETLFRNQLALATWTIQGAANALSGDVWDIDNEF
# assay-procedure: ELISA, recombinant TfR1 coated, unconjugated Fab (row 'Fab binding affinity ELISA')
When answering, recall that pEC50 equals minus log10 of the concentration in mol/L, and write that number alone.

humanized anti-TfR Fab 3M12 VH4/Vκ2 (Fab, V domains shown, also called 3M12 (VH4/Vk2)) VH: QVQLQESGPGLVKPSQTLSLTCTVTGYSITSGYYWNWIRQPPGKGLEWIGYITFDGANNYNPSLKNRVSISRDTSKNQFSLKLSSVTAEDTATYYCTRSSYDYDVLDYWGQGTTVTVSS VL: DIQMTQSPSSLSASVGDRVTITCRASQDISNFLNWYQQKPGQPVKLLIYYTSRLHSGVPSRFSGSGSGTDFTLTISSLQPEDFATYFCQQGHTLPYTFGQGTKLEIKR; 9.40

Exercise: Param item = humanized anti-TfR Fab 3A4 VH3 (N54T)/Vκ4 (Fab, V domains shown, also called 3A4 (VH3-N54T/Vk4)) VH: EVQLVQSGSELKKPGASVKVSCTASGFNIKDDYMYWVRQPPGKGLEWIGWIDPETGDTEYASKFQDRVTVTADTSTNTAYMELSSLRSEDTAVYYCTLWLRRGLDYWGQGTLVTVSS VL: DIVMTQSPLSLPVTPGEPASISCRSSKSLLHSNGYTYLFWFQQRPGQSPRLLIYRMSNLASGVPDRFSGSGSGTDFTLKISRVEAEDVGVYYCMQHLEYPFTFGGGTKVEIKR ; retrieve measured pEC50.
Solution: 8.59
